# Test system: Myzus persicae
# testMethodNotes: Myzus persicae - sachet test
# Assay type: in vivo
# testContext: application rate of 6 ppm in nutrient medium; 100% = all animals killed
What efficacy (kill in %) was measured for each of the following?
Output spec: scalar in %, unitless text.

Prompt line: For Cc1cc(NC(=O)c2cccnc2)nn1C(=O)NCc1ccc(F)cc1 , write its efficacy (kill in %).
Response line: 100

Prompt line: For Cc1cc(NC(=O)c2cccnc2)nn1C(=O)NC(C)(C)c1ncccn1 , write its efficacy (kill in %).
Response line: 100

Prompt line: For Cc1cc(NC(=O)c2cccnc2)nn1Cc1ccccc1F , write its efficacy (kill in %).
Response line: 100

Prompt line: For O=C(Nc1ccn(Cc2ncccn2)n1)c1cccnc1 , write its efficacy (kill in %).
Response line: 100

Prompt line: For Cc1cc(NC(=O)c2cccnc2)nn1C(=O)N(C)C , write its efficacy (kill in %).
Response line: 100

Prompt line: For Cc1cc(NC(=O)c2cccnc2)nn1C[S+](C)[O-] (stereo not drawn) , write its efficacy (kill in %).
Response line: 100

Prompt line: For Cc1cc(NC(=O)c2cccnc2)nn1C(=O)NC(C)c1ccc(F)cc1 (stereo not drawn) , write its efficacy (kill in %).
Response line: 100

Prompt line: For Cn1nc(NC(=O)c2cccnc2)cc1OC(F)F , write its efficacy (kill in %).
Response line: 100

Prompt line: For Cc1cc(NC(=O)c2cccnc2)nn1Cc1nccn1C , write its efficacy (kill in %).
Response line: 100

---

What log P (acid) was measured for each of the following?
# testMethodNotes: log P determination by LC-MS in the acidic range
# Type: physicochemical
# testContext: LC-MS in the acidic range

Prompt line: For Cc1cc(NC(=O)c2cccnc2)nn1Cc1cn2cc(C(F)(F)F)ccc2n1 , write its log P (acid).
Response line: 1.54

Prompt line: For Cc1cc(NC(=O)c2cccnc2)nn1C(=O)NCc1cccnc1 , write its log P (acid).
Response line: 0.64

Prompt line: For Cc1cc(NC(=O)c2cccnc2)nn1Cc1ccccn1 , write its log P (acid).
Response line: 0.88

Prompt line: For Cc1cc(NC(=O)c2cccnc2)nn1Cc1ccncc1 , write its log P (acid).
Response line: 0.13

Prompt line: For Cn1ccc(NC(=O)c2cccnc2)n1 , write its log P (acid).
Response line: 0.22

Prompt line: For Cc1cc(NC(=O)c2cccnc2)nn1C[S+](C)[O-] (stereo not shown) , write its log P (acid).
Response line: 0.19

Prompt line: For COCC(=O)n1nc(NC(=O)c2cccnc2)cc1C , write its log P (acid).
Response line: 1.17

Prompt line: For Cc1cc(F)c(Cn2nc(NC(=O)c3cccnc3)cc2C)cc1SCC(F)(F)F , write its log P (acid).
Response line: 2.89

Prompt line: For CC[S+]([O-])Cn1nc(NC(=O)c2cccnc2)cc1C (stereo not shown) , write its log P (acid).
Response line: 0.45

Prompt line: For Cc1cc(N(CC(F)F)C(=O)c2cccnc2)nn1Cc1ncccn1 , write its log P (acid).
Response line: 1.19

Prompt line: For Cc1cc(NC(=O)c2ccnnc2)nn1Cc1ncccc1Cl , write its log P (acid).
Response line: 1.33

Prompt line: For Cc1cc(NC(=O)c2cccnc2)nn1Cn1cncn1 , write its log P (acid).
Response line: 0.58

Prompt line: For Cc1cc(NC(=O)c2cccnc2)nn1C(=O)NCCOc1ccccc1 , write its log P (acid).
Response line: 2.18

Prompt line: For Cc1cc(NC(=S)c2cccnc2)nn1Cc1ncccn1 , write its log P (acid).
Response line: 1.24

Prompt line: For Cc1cc(NC(=O)c2cccnc2)nn1C(=O)NCC[S+](C)[O-] (stereo not shown) , write its log P (acid).
Response line: 0.84

Prompt line: For Cc1cc(NC(=O)c2cccnc2)nn1CCCl , write its log P (acid).
Response line: 1.16

Prompt line: For Cc1ccc(C(=O)Nc2cc(C)n(Cc3ccccc3F)n2)cn1 , write its log P (acid).
Response line: 1.73

Prompt line: For Cc1cc(NC(=O)c2cccnc2)nn1C(=O)CCS(C)(=O)=O , write its log P (acid).
Response line: 1.04

Prompt line: For CCS(=O)(=O)n1nc(NC(=O)c2cccnc2)cc1C , write its log P (acid).
Response line: 1.29
